System: Mus musculus
Assay: Total plasma concentration in CD1 mouse assessed as (2R,3R,4R,5R,6R)-5-acetamido-4-amino-2,3-difluoro-6-((1R,2R)-1,2,3-trihydroxypropyl)tetrahydro-2H-pyran-2-carboxylic acid at 30 mg/kg, po measured at 20 mins by reversed-phase UPLC/MS analysis
Format: ADME, organism-based
Parameters: dose 30 mg/kg, route oral
Details: in vivo
Would you mind telling me the reported concentration of each entry?
Respond with the bare value in nM.

In: Any idea what concentration was measured for `COC(=O)[C@]1(F)O[C@@H]([C@H](O)[C@H]2COC(C(C)C)(C(C)C)O2)[C@H](NC(C)=O)[C@@H](N)[C@H]1F` ?
Out: 620

In: What do we get for `CCC1(CC)OC[C@H]([C@@H](O)[C@@H]2O[C@@](F)(C(=O)OC)[C@H](F)[C@H](N)[C@H]2NC(C)=O)O1` ?
Out: 1950

In: Also check `CC(=O)N[C@@H]1[C@@H](N)[C@@H](F)[C@](F)(C(=O)OCCCOC(=O)C(C)(C)C)O[C@H]1[C@H](O)[C@H](O)CO`
Out: 1300

In: Quick one: `COC(=O)[C@]1(F)O[C@@H]([C@H](O)[C@H](O)COC(=O)OCC2c3ccccc3-c3ccccc32)[C@H](NC(C)=O)[C@@H](N)[C@H]1F`
Out: 620

In: // query: `CCCCCOC(=O)[C@]1(F)O[C@@H]([C@H](O)[C@H](O)CO)[C@H](NC(C)=O)[C@@H](N)[C@H]1F`
Out: 2740

In: And for `COC(=O)[C@]1(F)O[C@@H]([C@H](O)[C@H]2COC3(CCCC3)O2)[C@H](NC(C)=O)[C@@H](N)[C@H]1F` ?
Out: 490

In: Try this compound next: `CCCCCCCCOC(=O)[C@]1(F)O[C@@H]([C@H](O)[C@H](O)CO)[C@H](NC(C)=O)[C@@H](N)[C@H]1F`
Out: 3230
